system: SGC-7901; assay: Cytotoxicity against human SGC7901 cells after 48 hrs by MTT assay; type: functional, cell-based; conditions: SGC-7901, 48 h
pIC50: −log10 of the molar value.
# pIC50 listing for each entry below
result-type: pIC50

1) O=C1C(=O)c2c(nc3ncnn3c2-c2ccc(F)cc2)-c2ccccc21 :: 5.21
2) O=C1C(=O)c2c(nc3ncnn3c2-c2cccc([N+](=O)[O-])c2)-c2ccccc21 :: 5.01
3) COc1cc(-c2c3c(nc4ncnn24)-c2ccccc2C(=O)C3=O)cc(OC)c1OC :: 4.23
4) O=C1C(=O)c2c(nc3ncnn3c2-c2ccc(Cl)cc2Cl)-c2ccccc21 :: 5.74
5) Cc1ccc(-c2c3c(nc4ncnn24)-c2ccccc2C(=O)C3=O)cc1 :: 5.77
6) O=C1C(=O)c2c(nc3ncnn3c2-c2cccs2)-c2ccccc21 :: 5.84
7) COc1ccc(-c2c3c(nc4ncnn24)-c2ccccc2C(=O)C3=O)cc1 :: 5.88
8) O=C1C(=O)c2c(nc3ncnn3c2-c2ccccc2)-c2ccccc21 :: 5.67
9) COc1cccc2c1C(=O)c1c(O)c3c(c(O)c1C2=O)C[C@@](O)(C(=O)CO)C[C@@H]3O[C@H]1C[C@H](N)[C@H](O)[C@H](C)O1 :: 5.24
10) O=C1C(=O)c2c(nc3ncnn3c2-c2ccc([N+](=O)[O-])cc2)-c2ccccc21 :: 5.58
11) O=C1C(=O)c2c(nc3ncnn3c2-c2ccc(Cl)cc2)-c2ccccc21 :: 4.46
